# system: HIS-TGF-βR1 T204D (Homo sapiens (Human), UniProt P36897, T204D)
# Sequence (P36897 34-503 T204D): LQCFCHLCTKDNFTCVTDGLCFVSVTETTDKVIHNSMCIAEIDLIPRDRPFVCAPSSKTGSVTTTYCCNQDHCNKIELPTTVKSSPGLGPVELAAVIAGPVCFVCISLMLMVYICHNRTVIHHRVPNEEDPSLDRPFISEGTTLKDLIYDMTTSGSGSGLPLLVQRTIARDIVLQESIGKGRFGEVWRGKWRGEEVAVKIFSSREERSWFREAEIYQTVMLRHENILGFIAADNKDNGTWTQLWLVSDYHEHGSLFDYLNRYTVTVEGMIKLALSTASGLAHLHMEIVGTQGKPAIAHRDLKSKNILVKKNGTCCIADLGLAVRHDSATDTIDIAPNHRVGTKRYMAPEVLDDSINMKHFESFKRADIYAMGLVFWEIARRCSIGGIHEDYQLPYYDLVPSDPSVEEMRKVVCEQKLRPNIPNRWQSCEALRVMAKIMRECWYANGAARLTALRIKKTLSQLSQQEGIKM
# assay summary: HTRF probe displacement assay with HIS-TGF-βR1 T204D
# run conditions: read-out: TGFbr1 IC50; HTRF probe displacement, 1 nM HIS-TGF-βR1 T204D, 1 hour at room temperature
endpoint name: IC50 (nM)

These recorded examples may help you get a feel for the data.
- NC(=O)c1cnc2ccc(-c3c(-c4ccc(F)c(Cl)c4)ncn3C3CC(F)(F)C3)nn12: 1.4
- N#Cc1cnc2ccc(-c3c(-c4ccc(F)cc4)ncn3CCF)nn12: 1.9
- CC1(n2cnc(-c3ccc(F)c(Cl)c3)c2-c2ccc3ncc(C#N)n3n2)COC1: 2.7

(1) C[C@H](O)Cn1cnc(-c2ccc(F)cc2)c1-c1ccc2ncc(C(N)=O)n2c1
(2) CCCn1cnc(-c2ccc(F)cc2)c1-c1ccc2ncc(C#N)n2c1
Of 1 and 2 , whose reported IC50 is numerically smaller? Please indicate the selected item by its label.
1
(1: 2.7 nM, 2: 40.3 nM)

###

# system: HIS-TGF-βR1 T204D (Homo sapiens (Human), UniProt P36897, T204D)
# assay summary: HTRF probe displacement assay with HIS-TGF-βR1 T204D
# run conditions: read-out: TGFbr1 IC50; HTRF probe displacement, 1 nM HIS-TGF-βR1 T204D, 1 hour at room temperature
endpoint name: IC50 (nM)

- Fc1ccc(-c2ncn(C3(C(F)F)CC3)c2-c2ccc3nccn3n2)cc1: 1.6
- O=C(NC1CC1)c1cnc2ccc(-c3c(-c4ccc(F)cc4)ncn3CC(F)F)nn12: 1.2
- NC(=O)c1cnc2ccc(-c3c(-c4ccc(F)c(Cl)c4)ncn3C3CCOC3)nn12 (stereo not drawn): 1.7
- CC(C)C(C)n1cnc(-c2ccc(F)cc2)c1-c1ccc2ncc(C#N)n2c1 (stereo not drawn): 999
- CCn1cnc(-c2ccc(F)c(Cl)c2)c1-c1ccc2ncc(C#N)n2c1: 13.1

(1) N=C(NO)c1cnc2ccc(-c3c(-c4ccc(F)cc4)ncn3CC(F)F)nn12
(2) N#Cc1cnc2ccc(-c3c(-c4ccccc4C(F)(F)F)ncn3CC(F)F)nn12
Please tell me which of the two, 1 or 2 , has the higher reported IC50 value. Your answer should be the label of the entry you select.
2

(A) N#Cc1cnc2ccc(-c3c(-c4ccc(F)c(Cl)c4)ncn3CCCF)nn12
(B) Fc1ccc(-c2ncn(CC(F)F)c2-c2ccc3ncc(F)n3c2)cc1
Which shows the larger IC50 value: A or B ? Use the label to indicate which entry you chose.
B

###

# system: HIS-TGF-βR1 T204D (Homo sapiens (Human), UniProt P36897, T204D)
# assay summary: HTRF probe displacement assay with HIS-TGF-βR1 T204D
# run conditions: read-out: TGFbr1 IC50; HTRF probe displacement, 1 nM HIS-TGF-βR1 T204D, 1 hour at room temperature
pIC50: −log10 of the molar value.
endpoint name: pIC50

Here's what some known entries look like.
- Fc1ccc(-c2ncn(CC(F)F)c2-c2ccc3ncc(C4CC4)n3c2)cc1: 7.41
- Fc1ccc(-c2ncn(CC(F)F)c2-c2ccc3nccn3c2)cc1: 7.20
- NC(=O)c1cnc2ccc(-c3c(-c4ccc(F)c(Cl)c4)ncn3C3CC(F)(F)C3)cn12: 8.96
- Fc1ccc(-c2ncn(CC(F)F)c2-c2ccc3ncc(-c4cnco4)n3n2)cc1: 9.05
- CC(C)CCn1cnc(-c2ccc(F)c(Cl)c2)c1-c1ccc2ncc(C(N)=O)n2n1: 8.96
- Fc1ccc(-c2ncn(CC(F)F)c2-c2ccn3ncnc3c2)cc1: 7.89

(a) N#CCCn1cnc(-c2ccc(F)cc2)c1-c1ccc2ncc(C#N)n2n1
(b) NC(=O)c1cnc2ccc(-c3c(-c4ccc(F)cc4)ncn3CCF)nn12
(c) N#Cc1cnc2ccc(-c3c(-c4ccc(N)cc4)ncn3CC(F)F)nn12
Sort low-to-high on pIC50, please. Your task in answering is to list the labels in the requested order.
c, a, b

Origin of measurements: patent US9884868B2
